The reported measurements were obtained from patent US7169818B2.

Molecular target: human LPA2 (Homo sapiens, UniProt Q9HBW0)
Sequence (Q9HBW0 whole entry): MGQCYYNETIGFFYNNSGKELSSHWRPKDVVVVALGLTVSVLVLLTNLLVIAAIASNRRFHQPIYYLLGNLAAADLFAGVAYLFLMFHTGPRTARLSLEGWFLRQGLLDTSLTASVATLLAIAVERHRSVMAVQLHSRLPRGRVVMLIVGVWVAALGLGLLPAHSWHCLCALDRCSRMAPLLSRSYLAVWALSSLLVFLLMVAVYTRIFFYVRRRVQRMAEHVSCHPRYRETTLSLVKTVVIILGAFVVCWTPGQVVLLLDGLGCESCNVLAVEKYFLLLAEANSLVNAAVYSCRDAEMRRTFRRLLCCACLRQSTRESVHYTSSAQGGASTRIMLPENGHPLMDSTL
Experiment: GTP[γ35S] binding, LPA2-transfected HEK293T cell membranes
Conditions: agonist activity, GTP[γ35S] binding; read-out: LP A2 EC50
pEC50: −log10 of the molar value.

| smiles.representation | pEC50 |
| --- | --- |
| CCCCCCCC/C=C\CCCCCCCC(=O)N[C@@H](CC)COP(=O)(O)O | 5.37 |

###

Biological target: mouse LPA1 (Mus musculus)
Sequence (P61793 whole entry): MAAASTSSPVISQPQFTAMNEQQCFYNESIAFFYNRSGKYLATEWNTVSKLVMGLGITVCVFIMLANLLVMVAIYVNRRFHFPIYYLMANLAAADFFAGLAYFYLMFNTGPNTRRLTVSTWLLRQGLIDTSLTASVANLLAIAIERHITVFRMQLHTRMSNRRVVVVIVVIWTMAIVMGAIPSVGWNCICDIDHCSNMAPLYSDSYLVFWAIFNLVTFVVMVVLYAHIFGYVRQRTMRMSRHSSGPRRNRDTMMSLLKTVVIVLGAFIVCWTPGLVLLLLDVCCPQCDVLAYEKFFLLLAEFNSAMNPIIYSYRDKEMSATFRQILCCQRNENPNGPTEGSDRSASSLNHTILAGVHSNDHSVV
Assay: GTP[γ35S] binding, LPA1-transfected HEK293T (or RH7777) cell membranes
Details: agonist activity, GTP[γ35S] binding; read-out: LP A1 EC50
pEC50: −log10 of the molar value.
measure.name: pEC50

| smiles.representation | value.measured |
| --- | --- |
| CCCCCCCC/C=C\CCCCCCCC(=O)N[C@@H](CC)COP(=O)(O)O | 5.80 |
